assay: chemical genetic growth profiling, strain panel (AID 1159580);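 also: tested at 20 µM; growth read once vehicle control cultures reached saturation at 30 °C; 1 = growth at the plate median or of vehicle wells; lower values mean less growth of the strain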; settings: S. cerevisiae deletion strains, growth OD, locus YPL209C, strain IPL1, hits give low values
The whole screen tested about 5,500 compounds, of which about 2,000 (36%) were called active. Another 18% or so got no clear call; they are omitted. This is one part of the list.
Reported normalized growth values for the following compounds.
// response body must contain only the number

# annotated cases, reported normalized growth shown
[[record]]
compound = "CSc1cccc(N2C(=O)CC(c3c(Cl)cccc3Cl)CC2=O)c1"
value_observed = 0.989

[[record]]
compound = "O=C(Nc1ccccn1)c1cc(-c2ccccc2)c(C(F)(F)F)s1"
value_observed = 0.938

[[record]]
compound = "COc1cc(N=Cc2cc(Cl)cc(Cl)c2OC(=O)c2cc(OC)c(OC)c(OC)c2)c(OC)cc1Cl"
value_observed = 0.977

[[record]]
compound = "CCOC(=O)CCc1cc(N=Cc2cc(Br)ccc2O)c(O)c(N=Cc2cc(Br)ccc2O)c1"
value_observed = 0.964

[[record]]
compound = "C/C(=N/OC(=O)Nc1ccc(Cl)cc1)c1ccc2c(c1)CCO2"
value_observed = 0.956

[[record]]
compound = "N#CC1=C(N)C(C#N)(C#N)C2(CCCCC2)C2CCCC=C12 (centres undefined)"
value_observed = 0.988


Ask: Could you please provide reported normalized growth for "Nc1cc(-c2ccc(OC(F)(F)F)cc2)nn1-c1ccc(Cl)c(Cl)c1" ? Thanks!
Reply: 0.966

Ask: Could you please provide reported normalized growth for "O=C(CCSc1cccs1)Nc1cccc(C(F)(F)F)c1" ? Thanks!
Reply: 0.92

Ask: Could you please provide reported normalized growth for OC(c1ccc(C(F)(F)F)cc1)c1cccc(C(F)(F)F)c1 (centres undefined) ? Thanks!
Reply: 0.973
